System: KRAS-mutant PDC complex spheroid viability
Test: Anticancer human tumor 186277-243-T-J2-PDC patient-derived colon adenocarcinoma cell line growth inhibition [KRAS2]
Conditions: curve of first compound; second compound 0.1 µM
pIC50: −log10 of the molar value.
PARAMETER_MEASURED: pIC50

// worked examples, pIC50 included
COMPOUND	PARAMETER_MEASURED	RESULT
CC1COCCN1c1cc(-c2ccnn2C)c2ccnc(-c3ccn[nH]3)c2n1 (stereo unspecified) + C=CC(=O)N1CCN(c2nc(OCC3CCCN3C)nc3c2CCN(c2cccc4cccc(C)c24)C3)CC1CC#N	pIC50	7.70
CCN1CCN(Cc2ccc(Nc3ncc(F)c(-c4cc(F)c5nc(C)n(C(C)C)c5c4)n3)nc2)CC1 + COc1cc2nc(C)nc(NC(C)c3cc(N)cc(C(F)(F)F)c3)c2cc1OC1CCOC1	pIC50	< 6.00

Query: Give the reported pIC50 for CC1COCCN1c1cc(-c2ccnn2C)c2ccnc(-c3ccn[nH]3)c2n1 (stereo unspecified) + COc1cc2nc(C)nc(NC(C)c3cc(N)cc(C(F)(F)F)c3)c2cc1OC1CCOC1 (system: KRAS-mutant PDC complex spheroid viability).
Result: > 8.00

Query: Give the reported pIC50 for CN(C)C/C=C/C(=O)Nc1cc2c(Nc3ccc(F)c(Cl)c3)ncnc2cc1O[C@H]1CCOC1 + CC1OCC2(CCN(c3cnc(Sc4ccnc(N)c4Cl)c(N)n3)CC2)C1N (system: KRAS-mutant PDC complex spheroid viability).
Result: < 7.00

Query: Give the reported pIC50 for CC1OCC2(CCN(c3cnc(Sc4ccnc(N)c4Cl)c(N)n3)CC2)C1N (stereo unspecified) + CNCc1ccccc1-c1csc(C(C)Nc2nc(C)nc3cc(OC)c(OC)cc23)c1 (system: KRAS-mutant PDC complex spheroid viability).
Result: < 5.00

Query: Give the reported pIC50 for CCN1CCN(Cc2ccc(Nc3ncc(F)c(-c4cc(F)c5nc(C)n(C(C)C)c5c4)n3)nc2)CC1 + CC1OCC2(CCN(c3cnc(Sc4ccnc(N)c4Cl)c(N)n3)CC2)C1N (system: KRAS-mutant PDC complex spheroid viability).
Result: < 6.00

----------
Recorded viability, T/C for the following molecules
Tested on: KRAS-mutant PDC complex spheroid viability
Test: Anticancer human tumor 186277-243-T-J2-PDC cell line growth inhibition [KRAS2];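 on viability, T/C: viability read after seven days of compound exposure; 100% = DMSO vehicle-treated spheroids so lower means less viable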
Conditions: second compound 3.16 µM; first compound 1 µM; stronger effect = lower value
Express the result in % but write the number alone.

// worked examples, viability, T/C included
MOLECULE	PARAMETER_MEASURED	RESULT_UNITS	QUANTITATIVE_READOUT
COc1cc(Nc2ncc3c(n2)-c2ccc(Cl)cc2C(c2c(F)cccc2OC)=NC3)ccc1C(=O)O + CC1OCC2(CCN(c3cnc(Sc4ccnc(N)c4Cl)c(N)n3)CC2)C1N	viability, T/C	%	15.7
CCN1CCN(Cc2ccc(Nc3ncc(F)c(-c4cc(F)c5nc(C)n(C(C)C)c5c4)n3)nc2)CC1 + COc1cc2nc(C)nc(NC(C)c3cc(N)cc(C(F)(F)F)c3)c2cc1OC1CCOC1	viability, T/C	%	26.4
O=C(c1cc(Cc2n[nH]c(=O)c3ccccc23)ccc1F)N1CCN(C(=O)C2CC2)CC1 + C=CC(=O)N1CCN(c2nc(=O)n(-c3c(C)ccnc3C(C)C)c3nc(-c4c(O)cccc4F)c(F)cc23)C(C)C1	viability, T/C	%	89.1
CCNC(=O)CC1N=C(c2ccc(Cl)cc2)c2cc(OC)ccc2-n2c(C)nnc21 (stereo not given) + C=CC(=O)N1CCN(c2nc(OCC3CCCN3C)nc3c2CCN(c2cccc4cccc(C)c24)C3)CC1CC#N	viability, T/C	%	1.12

Consider the additional molecule presented here.
Query: Given the molecule CCN1CCN(Cc2ccc(Nc3ncc(F)c(-c4cc(F)c5nc(C)n(C(C)C)c5c4)n3)nc2)CC1 + C=CC(=O)N1CCN(c2nc(=O)n(-c3c(C)ccnc3C(C)C)c3nc(-c4c(O)cccc4F)c(F)cc23)C(C)C1 , what is its reported viability, T/C?
Result: 73

----------
Test system: KRAS-mutant PDC complex spheroid viability
Experiment: Anticancer human tumor 186277-243-T-J2-PDC cell line growth inhibition [KRAS2];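 on viability, T/C: viability read after seven days of compound exposure; 100% = DMSO vehicle-treated spheroids so lower means less viable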
Conditions: second compound 10 µM; first compound 0.0316 µM; stronger effect = lower value
PARAMETER_MEASURED: viability, T/C (%)
Express the result in % but write the number alone.

// worked examples, viability, T/C included
COMPOUND	viability, T/C / %
COC(=O)c1ccc2c(C(=Nc3ccc(N(C)C(=O)CN4CCN(C)CC4)cc3)c3ccccc3)c(O)[nH]c2c1 + CNCc1ccccc1-c1csc(C(C)Nc2nc(C)nc3cc(OC)c(OC)cc23)c1	0.13
Cn1ncnc1[C@H]1c2n[nH]c(=O)c3cc(F)cc(c23)N[C@@H]1c1ccc(F)cc1 + COc1cc2nc(C)nc(NC(C)c3cc(N)cc(C(F)(F)F)c3)c2cc1OC1CCOC1	42.2

Consider the additional compound presented here.
Query: Given the compound CCNC(=O)CC1N=C(c2ccc(Cl)cc2)c2cc(OC)ccc2-n2c(C)nnc21 (stereo not drawn) + COc1cc2nc(C)nc(NC(C)c3cc(N)cc(C(F)(F)F)c3)c2cc1OC1CCOC1 , what is its reported viability, T/C?
Result: 90.5

----------
System: KRAS-mutant PDC complex spheroid viability
Assay: Anticancer human tumor 186277-243-T-J2-PDC cell line growth inhibition [KRAS2];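 on viability, T/C: viability read after seven days of compound exposure; 100% = DMSO vehicle-treated spheroids so lower means less viable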
Details: second compound 1 µM; first compound 0.00316 µM; stronger effect = lower value
Recorded viability, T/C for the following compounds
Express the result in % but write the number alone.

// worked examples, viability, T/C included
COMPOUND	PARAMETER_MEASURED	QUANTITATIVE_READOUT
CC(C)n1nc(-c2ccc3oc(N)nc3c2)c2c(N)ncnc21 + C=CC(=O)N1CCN(c2nc(OCC3CCCN3C)nc3c2CCN(c2cccc4cccc(C)c24)C3)CC1CC#N	viability, T/C	70.8
Cn1ncnc1[C@H]1c2n[nH]c(=O)c3cc(F)cc(c23)N[C@@H]1c1ccc(F)cc1 + C=CC(=O)N1CCN(c2nc(=O)n(-c3c(C)ccnc3C(C)C)c3nc(-c4c(O)cccc4F)c(F)cc23)C(C)C1	viability, T/C	108
CN(C)C/C=C/C(=O)Nc1cc2c(Nc3ccc(F)c(Cl)c3)ncnc2cc1O[C@H]1CCOC1 + C=CC(=O)N1CCN(c2nc(=O)n(-c3c(C)ccnc3C(C)C)c3nc(-c4c(O)cccc4F)c(F)cc23)C(C)C1	viability, T/C	91.5

Query: Given the compound CN(C)C/C=C/C(=O)Nc1cc2c(Nc3ccc(F)c(Cl)c3)ncnc2cc1O[C@H]1CCOC1 + CC1OCC2(CCN(c3cnc(Sc4ccnc(N)c4Cl)c(N)n3)CC2)C1N , what is its reported viability, T/C?
Result: 93.5

Query: Given the compound CN(C)C/C=C/C(=O)Nc1cc2c(Nc3ccc(F)c(Cl)c3)ncnc2cc1O[C@H]1CCOC1 + COc1cc2nc(C)nc(NC(C)c3cc(N)cc(C(F)(F)F)c3)c2cc1OC1CCOC1 , what is its reported viability, T/C?
Result: 91

Query: Given the compound CC(=O)Nc1cccc(-n2c(=O)n(C3CC3)c(=O)c3c(Nc4ccc(I)cc4F)n(C)c(=O)c(C)c32)c1 + COc1cc2nc(C)nc(NC(C)c3cc(N)cc(C(F)(F)F)c3)c2cc1OC1CCOC1 , what is its reported viability, T/C?
Result: 4.43

Query: Given the compound CC(=O)Nc1cccc(-n2c(=O)n(C3CC3)c(=O)c3c(Nc4ccc(I)cc4F)n(C)c(=O)c(C)c32)c1 + C=CC(=O)N1CCN(c2nc(=O)n(-c3c(C)ccnc3C(C)C)c3nc(-c4c(O)cccc4F)c(F)cc23)C(C)C1 , what is its reported viability, T/C?
Result: 7.6

Query: Given the compound CN(C)C/C=C/C(=O)Nc1cc2c(Nc3ccc(F)c(Cl)c3)ncnc2cc1O[C@H]1CCOC1 + C=CC(=O)N1CCN(c2nc(OCC3CCCN3C)nc3c2CCN(c2cccc4cccc(C)c24)C3)CC1CC#N , what is its reported viability, T/C?
Result: 112

Query: Given the compound Cn1ncnc1[C@H]1c2n[nH]c(=O)c3cc(F)cc(c23)N[C@@H]1c1ccc(F)cc1 + COc1cc2nc(C)nc(NC(C)c3cc(N)cc(C(F)(F)F)c3)c2cc1OC1CCOC1 , what is its reported viability, T/C?
Result: 104

Query: Given the compound CC(C)n1nc(-c2ccc3oc(N)nc3c2)c2c(N)ncnc21 + C=CC(=O)N1CCN(c2nc(=O)n(-c3c(C)ccnc3C(C)C)c3nc(-c4c(O)cccc4F)c(F)cc23)C(C)C1 , what is its reported viability, T/C?
Result: 75.8

Query: Given the compound CN(C)C/C=C/C(=O)Nc1cc2c(Nc3ccc(F)c(Cl)c3)ncnc2cc1O[C@H]1CCOC1 + CNCc1ccccc1-c1csc(C(C)Nc2nc(C)nc3cc(OC)c(OC)cc23)c1 , what is its reported viability, T/C?
Result: 102

Query: Given the compound CCN1CCN(Cc2ccc(Nc3ncc(F)c(-c4cc(F)c5nc(C)n(C(C)C)c5c4)n3)nc2)CC1 + CNCc1ccccc1-c1csc(C(C)Nc2nc(C)nc3cc(OC)c(OC)cc23)c1 , what is its reported viability, T/C?
Result: 90

Query: Given the compound CC(C)n1nc(-c2ccc3oc(N)nc3c2)c2c(N)ncnc21 + CNCc1ccccc1-c1csc(C(C)Nc2nc(C)nc3cc(OC)c(OC)cc23)c1 , what is its reported viability, T/C?
Result: 55.8

Query: Given the compound Cn1ncnc1[C@H]1c2n[nH]c(=O)c3cc(F)cc(c23)N[C@@H]1c1ccc(F)cc1 + CC1OCC2(CCN(c3cnc(Sc4ccnc(N)c4Cl)c(N)n3)CC2)C1N , what is its reported viability, T/C?
Result: 89.4

Query: Given the compound CC(C)n1nc(-c2ccc3oc(N)nc3c2)c2c(N)ncnc21 + CC1OCC2(CCN(c3cnc(Sc4ccnc(N)c4Cl)c(N)n3)CC2)C1N , what is its reported viability, T/C?
Result: 67.5

Query: Given the compound CC(=O)Nc1cccc(-n2c(=O)n(C3CC3)c(=O)c3c(Nc4ccc(I)cc4F)n(C)c(=O)c(C)c32)c1 + C=CC(=O)N1CCN(c2nc(OCC3CCCN3C)nc3c2CCN(c2cccc4cccc(C)c24)C3)CC1CC#N , what is its reported viability, T/C?
Result: 2.88

Query: Given the compound CC(=O)Nc1cccc(-n2c(=O)n(C3CC3)c(=O)c3c(Nc4ccc(I)cc4F)n(C)c(=O)c(C)c32)c1 + CC1OCC2(CCN(c3cnc(Sc4ccnc(N)c4Cl)c(N)n3)CC2)C1N , what is its reported viability, T/C?
Result: 1.82

Query: Given the compound CCN1CCN(Cc2ccc(Nc3ncc(F)c(-c4cc(F)c5nc(C)n(C(C)C)c5c4)n3)nc2)CC1 + CC1OCC2(CCN(c3cnc(Sc4ccnc(N)c4Cl)c(N)n3)CC2)C1N , what is its reported viability, T/C?
Result: 88.8

Query: Given the compound Cn1ncnc1[C@H]1c2n[nH]c(=O)c3cc(F)cc(c23)N[C@@H]1c1ccc(F)cc1 + CNCc1ccccc1-c1csc(C(C)Nc2nc(C)nc3cc(OC)c(OC)cc23)c1 , what is its reported viability, T/C?
Result: 97.9

Query: Given the compound Cn1ncnc1[C@H]1c2n[nH]c(=O)c3cc(F)cc(c23)N[C@@H]1c1ccc(F)cc1 + C=CC(=O)N1CCN(c2nc(OCC3CCCN3C)nc3c2CCN(c2cccc4cccc(C)c24)C3)CC1CC#N , what is its reported viability, T/C?
Result: 105

Query: Given the compound CC(C)n1nc(-c2ccc3oc(N)nc3c2)c2c(N)ncnc21 + COc1cc2nc(C)nc(NC(C)c3cc(N)cc(C(F)(F)F)c3)c2cc1OC1CCOC1 , what is its reported viability, T/C?
Result: 91.8

Cited source for all entries: PubChem BioAssay AID1963875
